# System: concanavalin A (ConA)-stimulated murine splenocytes
# measurement_notes: Concanavalin A-stimulated murine splenocyte assay ([3H]thymidine incorporation)
# Format: cell-based, mouse (BALB/c)
parameter_measured: IC50

>>> result("C/C=C\\C#CC#CC[C@@H](C)[C@@H](O)[C@H]1C(=O)N[C@@H](CC)C(=O)N(C)CC(=O)N(C)[C@@H](CC(C)C)C(=O)N[C@@H](C(C)C)C(=O)N(C)[C@@H](CC(C)C)C(=O)N[C@@H](C)C(=O)N[C@H](C)C(=O)N(C)[C@@H](CC(C)C)C(=O)N(C)[C@@H](CC(C)C)C(=O)N(C)[C@@H](C(C)C)C(=O)N1C [Example 35, cis-cyclosporin yne-yne-ene]")
"0.077 µg/mL"
>>> result("C#CC#CC[C@@H](C)[C@@H](O)[C@H]1C(=O)N[C@@H](CC)C(=O)N(C)CC(=O)N(C)[C@@H](CC(C)C)C(=O)N[C@@H](C(C)C)C(=O)N(C)[C@@H](CC(C)C)C(=O)N[C@@H](C)C(=O)N[C@H](C)C(=O)N(C)[C@@H](CC(C)C)C(=O)N(C)[C@@H](CC(C)C)C(=O)N(C)[C@@H](C(C)C)C(=O)N1C")
"0.012 µg/mL"
>>> result("C/C=C\\C#CC[C@@H](C)[C@@H](O)[C@H]1C(=O)N[C@@H](CC)C(=O)N(C)CC(=O)N(C)[C@@H](CC(C)C)C(=O)N[C@@H](C(C)C)C(=O)N(C)[C@@H](CC(C)C)C(=O)N[C@@H](C)C(=O)N[C@H](C)C(=O)N(C)[C@@H](CC(C)C)C(=O)N(C)[C@@H](CC(C)C)C(=O)N(C)[C@@H](C(C)C)C(=O)N1C [Example 14, cis-cyclosporin yne-ene]")
"0.032 µg/mL"
>>> result("CC#CC#CC[C@@H](C)[C@@H](O)[C@H]1C(=O)N[C@@H](CC)C(=O)N(C)CC(=O)N(C)[C@@H](CC(C)C)C(=O)N[C@@H](C(C)C)C(=O)N(C)[C@@H](CC(C)C)C(=O)N[C@@H](C)C(=O)N[C@H](C)C(=O)N(C)[C@@H](CC(C)C)C(=O)N(C)[C@@H](CC(C)C)C(=O)N(C)[C@@H](C(C)C)C(=O)N1C")
"0.012 µg/mL"
